Origin of values: a melting point compilation (Tetko et al.; mined from patent text by program, amines drawn as free bases though some values may be those of a salt)

measurementKind: melting point

Example cases with answers are listed next.
# compound, resultValue
records = [
    ("CCC(CC)N1CCN(C)c2c1cc(C)nc2Oc1c(C)cc(C)cc1C", "78 to 80 °C"),
    ("COc1cc2cc3c(Nc4ccc(Oc5ccccc5)c(Cl)c4)c(C#N)cnc3cc2cc1OCCN1CCOCC1", "190 to 194 °C"),
    ("COC(=O)C#CC(=O)c1ccccc1", "31 to 35 °C"),
    ("Cc1cccc(-c2ccc([N+](=O)[O-])cc2)c1", "59 to 60 °C"),
    ("CC1=CC(c2cccc([N+](=O)[O-])c2)C(C(=O)O)=NN1 (stereo not given)", "149 °C"),
]

Lab note: CCS(=O)(=O)Nc1cc(N=C=S)c(F)cc1Cl gave melting point of 104 to 105 °C

Lab note: COC(=O)c1ccc(OC)cc1S(=O)(=O)NC(=O)Nc1nc(C)nc(OC)n1 gave melting point of 183 to 186 °C

Lab note: COc1ccc(-n2c(=O)c3c(c4cccnc42)OCC3)cc1 gave melting point of 282 to 284 °C

Lab note: COc1ccc2c(C)c(CCO)c(=O)oc2c1OC gave melting point of 113 to 114 °C

Lab note: C[C@H](O)C(=O)Nc1c(C(=O)c2cc(CO)co2)[nH]c2cc(Cl)ccc12 gave melting point of 213 to 214 °C
